The entries below come with measured efflux ratio values attached.
# TEST_METHOD_NOTES: in vitro
# RECORDED_CONDITIONS: dog, MDCK-MDR1
# Description: Efflux ratio in MDCKI-MDR1 cells

Example results:
COMPOUND	efflux ratio
COc1ccc(C(=O)N2CCOC[C@H]2Cc2cccc(-n3nccn3)c2)c(-n2nccn2)c1	7.2
Cc1ccc(C(=O)N2CCOC[C@H]2Cc2cccc(-n3nccn3)c2)c(-n2nccn2)c1C	5
COc1ccc(-n2nccn2)c(C(=O)N2CCOC[C@H]2Cc2cccc(-n3nccn3)c2)c1	10

*Q* Respond only with efflux ratio recorded for Cc1ccc(C(=O)N2CCOC[C@H]2Cc2cccc(-n3nccn3)c2)c(-n2nccn2)c1 [NIVASOREXANT]
*A* 3.5

Cited source: ChEMBL document CHEMBL5537208
